Each item that follows carries a reported IC50.
- experimentalTarget: hAhR (Homo sapiens)
- Construct: Stably integrated DRE-luciferase cell lines were generated by transducing the both cell lines with Cignal XRE luciferase reporter (Qiagen) lentiviral particles; endogenous in cells; host or cells: HEPG2 (human hepatoma) with stably integrated XRE/DRE-luciferase reporter
- methodSummary: DRE-luciferase transcriptional assay, antagonist mode, in HEPG2 DRE-Luc cells stimulated with TCDD
- Assay type: cell-based
- assayConditions: HEPG2 DRE-Luc cells, 3 nM TCDD, 24 h incubation; relative IC50; read-out: IC50 hAhR (antagonist mode)
quantityName: IC50

>>> measured("Cc1nccn1-c1cn2c(C(C)C)cnc2c(NCc2cccc(C(N)=O)c2)n1")
"1000 to 10000 nM"
>>> measured("Cc1cncc(-c2cn3c(C(C)C)cnc3c(NCCc3ccc(O)cc3)n2)c1")
"500 to 1000 nM"
>>> measured("Cc1cncc(-c2cn3c(C(C)C)cnc3c(NCCc3c[nH]c4ccccc34)n2)c1")
"< 200 nM"
>>> measured("Cc1nccn1-c1cn2c(C(C)C)cnc2c(OCCc2c[nH]c3ccccc23)n1")
"200 to 500 nM"
>>> measured("Cc1nccn1-c1cn2c(C(C)C)cnc2c(NCCc2c[nH]c3ncccc23)n1")
"1000 to 10000 nM"
>>> measured("CC(C)c1cnc2c(NCCc3n[nH]c4ccccc34)nc(-c3cncc(F)c3)cn12")
"< 200 nM"
>>> measured("Cc1nccn1-c1cn2c(C(C)C)cnc2c(NCCc2c[nH]c3cc(F)cc(F)c23)n1")
"< 200 nM"
>>> measured("Cc1cncc(-c2cn3c(C(C)C)nnc3c(NCCc3c[nH]c4ccccc34)n2)c1")
"< 200 nM"
>>> measured("Cc1nccn1-c1cn2c(C(C)C)cnc2c(N[C@H](C)Cc2c[nH]c3ccccc23)n1 [Example 17a]")
"500 to 1000 nM"
>>> measured("CC(C)c1cnc2c(NCCc3ccc(O)cc3)nc(-c3cncc(C#N)c3)cn12")
"200 to 500 nM"
>>> measured("CC(C)c1nnc2c(NCCc3ccc(O)cc3)nc(-c3cncc(C#N)c3)cn12")
"< 200 nM"
>>> measured("CC(C)c1cnc2c(NCCn3c(=O)[nH]c4ccccc43)nc(-c3cncc(F)c3)cn12")
"< 200 nM"
>>> measured("CC(C)c1cnc2c(NCCc3c[nH]c4cccc(F)c34)nc(-c3cnn(C)c3)cn12")
"< 200 nM"
>>> measured("Cc1nccn1-c1cn2c(C(C)C)cnc2c(NCCc2c[nH]c3c(F)cccc23)n1")
"< 200 nM"
>>> measured("CC(C)c1cnc2c(NCCc3c[nH]c4ccccc34)nc(-c3cncc(C#N)c3)cn12")
"< 200 nM"
>>> measured("CC(C)c1nnc2c(NCCc3c[nH]c4ccccc34)nc(-c3cncc(C#N)c3)cn12")
"< 200 nM"
>>> measured("Cc1nccn1-c1cn2c(C(C)C)cnc2c(NCCc2cc[nH]c2)n1")
"1000 to 10000 nM"

* * *

Each item that follows carries a reported Emax.
- experimentalTarget: hAhR (Homo sapiens, UniProt P35869)
- Construct: Stably integrated DRE-luciferase cell lines were generated by transducing the both cell lines with Cignal XRE luciferase reporter (Qiagen) lentiviral particles; endogenous in cells; host or cells: HEPG2 (human hepatoma) with stably integrated XRE/DRE-luciferase reporter
- methodSummary: DRE-luciferase transcriptional assay, antagonist mode, in HEPG2 DRE-Luc cells stimulated with TCDD
- Format: cell-based
- assayConditions: HEPG2 DRE-Luc cells, 3 nM TCDD, 24 h incubation; read-out: HEPG2 % Max Inhibition
quantityName: Emax (%)

>>> measured("Cc1ncc(-c2cn3c(C(C)C)cnc3c(NCCc3c[nH]c4cccc(F)c34)n2)cn1")
100
>>> measured("Cc1nccn1-c1cn2c(C(C)C)cnc2c(NCCc2c[nH]c3cc(F)cc(F)c23)n1")
100
>>> measured("Cc1cncc(-c2cn3c(C(C)C)cnc3c(NCCc3ccc(O)cc3)n2)c1")
65
>>> measured("Cc1cncc(-c2cn3c(C(C)C)nnc3c(NCCc3c[nH]c4ccccc34)n2)c1")
100

* * *

Each item that follows carries a reported Emax.
- experimentalTarget: hAhR (Homo sapiens)
- Construct: Stably integrated DRE-luciferase cell lines were generated by transducing the both cell lines with Cignal XRE luciferase reporter (Qiagen) lentiviral particles; endogenous in cells; host or cells: HEPG2 (human hepatoma) with stably integrated XRE/DRE-luciferase reporter
- Sequence (P35869 11-848): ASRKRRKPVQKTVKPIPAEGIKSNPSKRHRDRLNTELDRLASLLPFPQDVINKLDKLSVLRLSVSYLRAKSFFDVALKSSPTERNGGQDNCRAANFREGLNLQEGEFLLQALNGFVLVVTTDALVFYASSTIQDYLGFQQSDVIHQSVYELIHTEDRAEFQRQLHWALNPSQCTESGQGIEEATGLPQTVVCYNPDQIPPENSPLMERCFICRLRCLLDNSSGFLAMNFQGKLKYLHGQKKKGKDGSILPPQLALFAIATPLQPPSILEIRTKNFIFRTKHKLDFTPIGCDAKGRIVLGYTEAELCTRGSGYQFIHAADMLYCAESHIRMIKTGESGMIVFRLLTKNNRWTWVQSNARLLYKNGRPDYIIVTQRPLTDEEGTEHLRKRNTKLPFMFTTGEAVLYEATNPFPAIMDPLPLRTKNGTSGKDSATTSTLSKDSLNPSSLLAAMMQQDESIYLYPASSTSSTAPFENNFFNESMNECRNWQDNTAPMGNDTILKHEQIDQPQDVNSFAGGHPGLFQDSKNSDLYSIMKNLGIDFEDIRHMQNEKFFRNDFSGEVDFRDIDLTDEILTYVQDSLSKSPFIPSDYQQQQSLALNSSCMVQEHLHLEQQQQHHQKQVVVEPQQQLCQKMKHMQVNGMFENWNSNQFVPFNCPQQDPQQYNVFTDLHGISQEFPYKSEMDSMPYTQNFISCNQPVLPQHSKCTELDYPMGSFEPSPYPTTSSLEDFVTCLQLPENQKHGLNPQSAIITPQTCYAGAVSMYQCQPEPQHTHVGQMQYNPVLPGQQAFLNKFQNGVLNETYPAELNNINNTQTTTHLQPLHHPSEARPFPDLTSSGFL
- methodSummary: DRE-luciferase transcriptional assay, antagonist mode, in HEPG2 DRE-Luc cells stimulated with TCDD
- Assay type: cell-based
- assayConditions: HEPG2 DRE-Luc cells, 3 nM TCDD, 24 h incubation; read-out: HEPG2 % Max Inhibition
quantityName: Emax (%)

>>> measured("CC(C)c1cnc2c(NCCn3c(=O)[nH]c4ccccc43)nc(-c3cncc(F)c3)cn12 [Example 19]")
100
>>> measured("Cc1nccn1-c1cn2c(C(C)C)cnc2c(NCCc2c[nH]c3cccnc23)n1 [Example 15]")
73
>>> measured("Cc1ncc(-c2cn3c(C(C)C)cnc3c(NCCc3c[nH]c4cccc(F)c34)n2)cc1F [Example 26]")
98
>>> measured("CC(C)c1nnc2c(NCCc3c[nH]c4ccccc34)nc(-c3cncc(C#N)c3)cn12 [Example 4]")
100

* * *

Each item that follows carries a reported Emax.
- experimentalTarget: hAhR (Homo sapiens)
- Construct: Stably integrated DRE-luciferase cell lines were generated by transducing the both cell lines with Cignal XRE luciferase reporter (Qiagen) lentiviral particles; endogenous in cells; host or cells: HEPG2 (human hepatoma) with stably integrated XRE/DRE-luciferase reporter
- methodSummary: DRE-luciferase transcriptional assay, antagonist mode, in HEPG2 DRE-Luc cells stimulated with TCDD
- Assay type: cell-based
- assayConditions: HEPG2 DRE-Luc cells, 3 nM TCDD, 24 h incubation; read-out: HEPG2 % Max Inhibition
quantityName: Emax

>>> measured("Cc1nccn1-c1cn2c(C(C)C)cnc2c(NCCc2c[nH]c3cccc(F)c23)n1 [Example 14]")
"100%"
>>> measured("Cc1cncc(-c2cn3c(C(C)C)ncc3c(NCCc3c[nH]c4ccccc34)n2)c1 [Example 9]")
"100%"
>>> measured("Cc1nccn1-c1cn2c(C(C)C)cnc2c(NCc2ccc(C(N)=O)cc2)n1 [Example 31]")
"31%"
